# Neut IC50 (µg/ml) subtype B listing for each entry below
target: RSV F protein of subtype B (18537) on recombinant mKate-RSV (Respiratory syncytial virus subtype B …, UniProt P13843 26-574); assay: cell-based or functional assay

| binder | Neut IC50 (µg/ml) subtype B |
| --- | --- |
| ADI-14553 (antibody, V domains shown, IgG) VH: QVQLVQSGTEVKKPGSSVNVSCKAVGGKFTSYNINWVRQAPGQGLEWMGRIIPTLGITYFAQKFQGRLTINADRSTSTAYMDLSSLRSDDTAVYYCARSNPVARDFWSGYSDDSSYAMDVWGQGTTVTVSS VL: ETTLTQSPGTLSLSPGDRVSLSCRASQTVDKNYVAWYQQKPGQAPRLLIYGASKRAADIPDRFSGSGSGADFTLTISRLEPEDFAVYHCQQYGASAFSFGGGTKLEIK | > 10 µg/mL |

-- ask Given the binder ADI-14557 (antibody, V domains shown) VH: QVQLQQWGAGLLKPSETLSLTCQVYGVSFSDYYWNWIRQSPGKGLEWIGDVNHIGNTDYNPSLKSRVSISVDTSKNQFSLTLRSVTAADTALYYCARGRKLFEVPPKAPDYWGQGTLVTVSS VL: DIVMTQSPGTLSLSPGERATLSCRASQSVSSTYLAWYQQKPGQAPRLLIYGASIRATGIPDRFSGVGSGTDFTLTISRLEPEDVAVYYCQQYGSSPQTFGQGTKVEIK , what is its reported Neut IC50 (µg/ml) subtype B?
-- reply > 10 µg/mL

-- ask Now the binder ADI-14543 (antibody, V domains shown) VH: QVQLVQSGAEVKKPGSSVKVSCKASGDTFSSYAISWVRQAPGQGLEWMGGVLPMLGTANYAQRFRGRVTLTADGSTNTAYMEMSSLRLDDTAVYYCARVAGLGNSYGRYPDLWGQGTLVTVSS VL: DIVMTQSPSSLSASVGDRVTITCRASQGISSSLAWYQQKPGKAPELLIYAASSLHSGVPSRFRGSGSGTDFTLTISSVQPEDFATYYCQQANSFPYTFGQGTKLEIK
-- reply > 10 µg/mL
